Reported TGI values for the following molecules.
Test system: A549 NSCLC
Assay: NCI tumour cell line growth inhibition, 48 h

Solved cases below.
| molecule | TGI |
| --- | --- |
| CC(=O)OC1CCC2(C)C(CCC3C4CC=C(C(C)=O)C4(C)OC(=O)CC32)C1 (configuration not stated) | 23.1 µM |
| COc1cc(O)c2c(c1)C(=O)c1cc(C)cc(O)c1C2=O | > 100 µM |
| CCO/C=N/C1=C(C#N)C(c2ccc(Cl)cc2)c2c(-c3ccccc3)nn(-c3ccccc3)c2O1 (configuration not stated) | 21.5 µM |
| O=C1Nc2cc([N+](=O)[O-])ccc2C(=O)N2CCC[C@@H]12 | > 100 µM |
| C[C@]12CC[C@H](O)C=C1CC[C@@H]1[C@@H]2CC[C@]2(C)C(=N/O)/C(=C/c3ccncc3)C[C@@H]12 | 29.8 µM |

Which TGI is listed for Cc1ccc2c(c1)SC(c1cc3c(cc1Br)OCO3)S2 (configuration not stated) ?
> 31.6 µM

Which TGI is listed for Nc1ccc(Nc2c3ccccc3nc3ccccc23)cc1 ?
> 10 µM

Which TGI is listed for CC(C)Oc1ccc(CNC2=NCCO2)c2ccccc12 ?
30.8 µM

The reported numbers originate from PubChem BioAssay (NCI).
